System: SK-MEL-28 melanoma
measurement.notes: NCI-60 one-dose screen, 48 h
conditions: 10 µM unless noted
The panel holds about 83,000 compounds, 20% with a hit somewhere; the sample as a whole holds those more often. The source made the active and inactive calls. Rule for the calls: active = growth percent below 10; inactive = the rest.
Possible outcomes: active, inactive

{"columns": ["molecule", "class.assignment"],
 "data": [
  ["O=C1Nc2ccc(Br)cc2C12CC(c1ccccc1)=NN2 (stereo not given)", "inactive"],
  ["COc1cnc2c(c1)C(=O)c1c-2n(CCCN2CCN(C)CC2)c(=O)c2cc([N+](=O)[O-])ccc12", "active"],
  ["COc1ccc(-c2cc(C(=O)N=Nc3c(O)[nH]c4ccccc34)no2)cc1", "inactive"],
  ["c1ccc2c(Nc3cccc4ccccc34)cccc2c1", "inactive"],
  ["COc1cc(C#N)cc(OC)c1OCCN(CCOc1c(OC)cc(C#N)cc1OC)S(=O)(=O)c1ccc(C)cc1", "inactive"]
]}

----------
Tested on: OVCAR-3 ovarian
measurement.notes: NCI-60 one-dose screen, 48 h
conditions: 10 µM unless noted
About 83,000 compounds went through this panel and 20% of them were active in at least one assay; those are over-represented in the sample as a whole. The source made the active and inactive calls. The calls were made as follows: active = growth percent below 10; inactive = the rest.
Possible outcomes: active, inactive

{"columns": ["smiles.text", "study.system", "class.assignment"],
 "data": [
  ["CCCCN(CCCC)Cc1c(C)[nH]c2cc(OC)ccc2c1=O", "OVCAR-3 ovarian", "inactive"],
  ["Cc1ccc2cnc(N)c(C#Cc3cncc(C(=O)Nc4ccc(CN5CCN(C)CC5)c(C(F)(F)F)c4)c3)c2c1", "OVCAR-3 ovarian", "active"],
  ["CC[C@@H](C)OC(=O)c1nn(C(C)=O)c2ccccc12", "OVCAR-3 ovarian", "inactive"],
  ["O=[N+]([O-])c1cccc(-c2nc3sccn3c2-c2ccnc(NCCCNS(=O)(=O)c3cccc(F)c3)n2)c1", "OVCAR-3 ovarian", "active"],
  ["CCN(CC)CCC(=O)Nc1ccc(Cn2nnc3c2C(=O)c2nnn(Cc4ccc(NC(=O)CCN(CC)CC)cc4)c2C3=O)cc1", "OVCAR-3 ovarian", "active"],
  ["O=C1C[C@H](Sc2nc(-c3ccc(F)cc3)cc(C(F)(F)F)n2)[C@H]2CO[C@@H]1O2", "OVCAR-3 ovarian", "inactive"],
  ["NS(=O)(=O)c1ccc(-n2ncc3c(=O)[nH]c(CN4CCN(c5cc6c(cc5F)c(=O)c(C(=O)O)cn6C5CC5)CC4)nc32)cc1", "OVCAR-3 ovarian", "inactive"],
  ["O=C([C@@H](COCc1ccccc1)N1C(=O)[C@@H](N2C(=O)OC[C@@H]2c2ccccc2)[C@H]1/C=C/c1ccccc1)N1CCC(CCN2CCCCC2)CC1", "OVCAR-3 ovarian", "inactive"]
]}

----------
Test system: IGROV1 ovarian
measurement.notes: NCI-60 one-dose screen, 48 h
conditions: 10 µM unless noted
About 83,000 compounds went through this panel and 20% of them were active in at least one assay; those are over-represented in the sample as a whole. Active and inactive are the calls of the source. How the source made its calls: active means growth percent below 10; inactive means the rest.
Possible outcomes: Yes for active, No for inactive

{"columns": ["compound", "class.assignment"],
 "data": [
  ["COc1ccc(-c2cn3c(-c4ccc(OC)cc4)cnc3c(Oc3ccc4c(C)cc(=O)oc4c3)n2)cc1", "No"],
  ["CN(C)c1ccc(C2Nc3ccccc3-n3cccc32)cc1 (centres undefined)", "No"],
  ["COc1ccc(-c2cc(C(=O)N=Nc3c(O)[nH]c4ccccc34)no2)cc1", "No"],
  ["C[C@@H]1CC[C@@H]2[C@@H]1[C@H](OC(=O)/C=C/c1ccccc1)[C@]1(c3ccccc3)C[C@@H](OC(=O)CO)[C@@]2(C)O1", "No"],
  ["CCN(CC)c1ccc(/C=C/C2=[N+](C)c3ccccc3C2(C)C)cc1", "No"],
  ["O=C(Nc1ccc(Nc2cc(Nc3ccccc3)ncn2)cc1)Nc1cc(C(F)(F)F)ccc1F", "No"],
  ["COCCOc1ccc(-c2nc3ccc(-c4nc5ccc(N6CCN(C)CC6)cc5[nH]4)cc3[nH]2)cc1", "No"],
  ["CN1/C(=C\\C=C\\C2=[N+](C)c3ccccc3C2(C)C)C(C)(C)c2ccccc21", "Yes"],
  ["O=S(=O)(Nc1ccc(Cl)cc1Cl)c1ccc(-c2cnc(C3CC3)o2)cc1", "No"],
  ["Cc1ccc(Nc2nc(N)nc(Nc3ccc4ccccc4c3)n2)cc1", "No"],
  ["COc1ccccc1/C=C(/C(=O)c1ccccc1)c1ccccc1", "No"],
  ["Brc1cccc(-c2cc(-c3ccc4c(c3)OCCO4)[nH]n2)c1", "No"],
  ["COc1cnc2c(c1)C(=O)c1c-2n(CCCN2CCNCC2)c(=O)c2cc([N+](=O)[O-])ccc12", "Yes"],
  ["CN(CC(=O)N(Cc1ccc(C2CCCCC2)cc1)c1ccc(C(=O)NO)cc1)S(=O)(=O)c1c(F)c(F)c(F)c(F)c1F", "No"],
  ["COc1ccc(S(=O)(=O)NCCCNc2nccc(-c3c(-c4cccc(N)c4)nc4sccn34)n2)cc1", "No"],
  ["CC/C(=C(\\c1ccccc1)c1ccc(OCCNC)cc1)c1ccccc1", "Yes"],
  ["COc1cc(NCCCCN=C(N)NC(N)=NC(C)C)c2ncccc2c1", "Yes"],
  ["COc1cc(/C=N\\NC(=O)CN2CCN(c3cc4c(cc3F)c(=O)c(C(=O)N/N=C/c3ccc(O)c(OC)c3)cn4C3CC3)CC2)ccc1O", "No"],
  ["O=C(CN1CCN(c2cc3c(cc2F)c(=O)c(C(=O)N/N=C/c2ccccc2)cn3C2CC2)CC1)N/N=C\\c1ccccc1", "No"]
]}

----------
Measured growth values are reported for all entries that follow.
Tested on: NCI-H322M lung
measurement.notes: NCI-60 one-dose screen, 48 h (100 = growth as untreated, 0 = no growth, -100 = all killed)
conditions: 10 µM unless noted
Description: Growth inhibition of the NCI-H322M human Non-Small Cell Lung tumor cell line is measured as a screen for anti-cancer activity. Cells are grown in 96 well plates and exposed to the test compound for 48 hours. Compounds are tested at a single concentration, which is 10^-5 M for most compounds. The reported endpoint is percent growth (GI% or GIPRCNT), where numbers from 0 - 100% represent growth inhibition, and numbers from -100% - 0 represent cell death. […]
The panel holds about 83,000 compounds, 20% with a hit somewhere; the sample as a whole holds those more often.

{"columns": ["molecule", "growth, %"],
 "data": [
  ["O=C(O)c1ccc2c(c1Sc1ccccc1)C(=O)c1ccccc1C2=O", 82.2],
  ["CCCCCCCCCCCCCCCCNCCC[C@@H](C)[C@H]1CC[C@H]2[C@@H]3[C@H](OCCCN)C[C@@H]4C[C@H](OCCCN)CC[C@]4(C)[C@H]3C[C@H](OCCCN)[C@]12C", -76.8],
  ["CC1CN(Cc2ccco2)C(=S)N(c2ccccc2)C1=O (centres undefined)", 99.4],
  ["Cc1cc(N/N=C/c2nc(-c3ccc(Cl)cc3)oc2C)c2cc(Cl)ccc2n1", 79.1],
  ["O=C1Nc2ccccc2/C1=C/C(=N/c1nnc(-c2ccccc2)s1)c1ccccc1", 95.7],
  ["CCN(CC)c1ccc(/C=C/C2=[N+](C)c3ccccc3C2(C)C)cc1", 27.2],
  ["C=C1C(=O)O[C@H]2[C@H]1CC/C(Cn1cc(Cn3ccc4ccccc43)nn1)=C\\CC[C@@]1(C)O[C@@H]21", 79.7],
  ["CC[C@@H](C)OC(=O)c1nn(C(C)=O)c2ccccc12", 107],
  ["CCCCCn1cnc2c(=S)nc[nH]c21", 121]
]}

----------
Tested on: EKVX NSCLC
measurement.notes: NCI-60 one-dose screen, 48 h
conditions: 10 µM unless noted
Compounds without any hit were thinned out: in the full panel of roughly 83,000, 20% have a hit. Activity calls are given as the source filed them. The calls were made as follows: active = growth percent below 10; inactive = the rest.
Possible outcomes: active, inactive

{"columns": ["compound", "class.assignment"],
 "data": [
  ["C=C(C[n+]1ccccc1)[C@@H]1CC[C@]2(C(=O)OC)CC[C@]3(C)[C@H](CC[C@@H]4[C@@]5(C)CC[C@H](O)C(C)(C)[C@@H]5CC[C@]43C)[C@@H]12", "inactive"],
  ["C/C(Cc1ccc(Cl)cc1)=C(\\c1ccc(OCCN2CCCCCC2)cc1)c1ccc(OC(=O)Cc2ccccc2)cc1", "inactive"],
  ["CN(CC(=O)N(Cc1ccc(C2CCCCC2)cc1)c1ccc(C(=O)NO)cc1)S(=O)(=O)c1c(F)c(F)c(F)c(F)c1F", "inactive"],
  ["COc1ccc(C/C(C)=C(\\c2ccc(Cl)cc2)c2ccc(OCCN3CCCCCC3)cc2)cc1", "inactive"],
  ["CCCCN(CCCC)Cc1c(C)[nH]c2cc(OC)ccc2c1=O", "inactive"],
  ["Fc1ccc(Cc2ccc(F)cc2)cc1", "inactive"],
  ["NS(=O)(=O)N(c1cc(C(F)(F)F)cc(C(F)(F)F)c1)C1CCN(Cc2ccc(F)cc2)CC1", "inactive"],
  ["O=C(Nc1ccc(Nc2cc(Nc3ccccc3)ncn2)cc1)Nc1cc(C(F)(F)F)ccc1F", "inactive"],
  ["CCNS(=O)(=O)c1ncnc2nc[nH]c12", "inactive"],
  ["CC/C=C\\C[C@H](F)C/C=C1/C(=O)C=C[C@@H]1C/C=C\\CCCC(=O)OC", "inactive"],
  ["N#Cc1c(N)nc(N)nc1Nc1ccc(Br)cc1", "inactive"],
  ["COCCOC(=O)C1=C(C)NC(=S)NC1c1ccc2c(c1)OCO2 (centres undefined)", "inactive"],
  ["CCN(CC)Cc1cc(Nc2c3ccc(Cl)cc3nc3c(C)cccc23)ccc1O", "active"],
  ["CC(C)(C)n1cc(-c2ccnc(NCCNS(=O)(=O)c3ccccc3)c2)c(-c2cccc(O)c2)n1", "inactive"],
  ["Nc1nc2c(c3ncccc13)C(c1cccc(Br)c1)Cc1ncccc1-2 (centres undefined)", "inactive"],
  ["CN1CCOCCOCCOc2ccccc2NC(=O)c2nc(cnc2N)-c2ccc(cc2)S1(=O)=O", "inactive"],
  ["CCN1CCN(Cc2ccc(NC(=O)Nc3nc4ccc(Oc5ccnc(C(=O)NC)c5)cc4s3)cc2C(F)(F)F)CC1", "inactive"],
  ["COc1ccc(S(=O)(=O)NCCNc2nccc(-c3c(-c4cccc(N)c4)nc4sccn34)n2)cc1", "inactive"],
  ["CC[C@H](CO)Nc1nc(NCc2ccccc2)n2ncc(C(C)C)c2n1", "active"]
]}

Just for reference, PubChem BioAssay (NCI) is where these values come from.
